I'd appreciate it if you could supply GI50 values for the items below.
- Tested on: OVCAR3 cells
- Method: MTT proliferation assay, OVCAR3;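 also: compound given as an 8- or 10-point series, one day after plating, with exposure covering roughly 3-4 cell doublings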
- Assay type: cell-based
- Experimental setup: 5 days compound exposure, 1:3 serial dilution starting at 10 μM
*1 amine or outer side, *2 acyl side, *3 side chain or, on linkers, in order; H or OH if unused. Where a SMILES comes first, the peptide text is derived from it. Bridges are numbered along the chain shown (N, C = ends). [ ]: non-standard residue; d: D form. The star is where a group is joined. X82 = CN([C@@H](Cc1cc(Cl)ccc1-c1cnn(S(C)(=O)=O)c1)C(=O)[*:2])[*:1]; NMehhhLys(Me) = CN([C@@H](CCCCCCCN(C)[*:3])C(=O)[*:2])[*:1]; X112 = CN([C@@H](Cc1cc(F)ccc1-c1cnn(C)c1)C(=O)[*:2])[*:1]; X199 = CN([C@@H](Cc1cc(Cl)ccc1C1=CCOC1)C(=O)[*:2])[*:1]; NMe(hhhLys) = CN([C@@H](CCCCCCCN[*:3])C(=O)[*:2])[*:1]; X28 = CN([C@@H](Cc1cc(Cl)cnc1OC1CCC1)C(=O)[*:2])[*:1]; cBuCO(3,3-F2-1-CF3) = O=C(C1(C(F)(F)F)CC(F)(F)C1)*; Pro(trans-4-F) = O=C(O)[C@@H]1C[C@@H](F)CN1; Pivaloyl(3,3,3-F3) = CC(C)(C(=O)*)C(F)(F)F; Gly(cPr) = N[C@H](C(=O)O)C1CC1

Using the record for CC(C)C[C@@H]1NC(=O)[C@@H](N(C)C(=O)[C@@H](NC(=O)[C@@H]2C[C@@H](F)CN2C(=O)C2(C(F)(F)F)CC(F)(F)C2)C2CC2)CCCCCCCNC(=O)[C@H](Cc2cc(Cl)cnc2OC2CCC2)N(C)C1=O [Example 142] ({cBuCO(3,3-F2-1-CF3)}-[Pro(trans-4-F)][Gly(cPr)][NMe(hhhLys)]L[X28]; lactam 3-C) , report its GI50.
190 nM

Next compound: CC(C)C[C@@H]1NC(=O)[C@@H](N(C)C(=O)[C@@H](NC(=O)[C@@H]2C[C@@H](F)CN2C(=O)C(C)(C)C(F)(F)F)C2CC2)CCCCCCCN(C)C(=O)[C@H](Cc2cc(Cl)ccc2-c2cnn(S(C)(=O)=O)c2)N(C)C1=O [Example 301] ({Pivaloyl(3,3,3-F3)}-[Pro(trans-4-F)][Gly(cPr)][NMehhhLys(Me)]L[X82]; lactam 3-C)
20 nM

What about this compound? CC(C)C[C@@H]1NC(=O)[C@@H](N(C)C(=O)[C@@H](NC(=O)[C@@H]2C[C@@H](F)CN2C(=O)C2(C(F)(F)F)CC(F)(F)C2)C2CC2)CCCCCCCN(C)C(=O)[C@H](Cc2cc(Cl)ccc2C2=CCOC2)N(C)C1=O [Example 209] ({cBuCO(3,3-F2-1-CF3)}-[Pro(trans-4-F)][Gly(cPr)][NMehhhLys(Me)]L[X199]; lactam 3-C)
20 nM

Proceed to CC(C)C[C@@H]1NC(=O)[C@@H](N(C)C(=O)[C@@H](NC(=O)[C@@H]2C[C@@H](F)CN2C(=O)C2(C(F)(F)F)CC(F)(F)C2)C2CC2)CCCCCCCN(C)C(=O)[C@H](Cc2cc(F)ccc2-c2cnn(C)c2)N(C)C1=O [Example 65] ({cBuCO(3,3-F2-1-CF3)}-[Pro(trans-4-F)][Gly(cPr)][NMehhhLys(Me)]L[X112]; lactam 3-C)
10 nM
